Test system: Corn
procedure text: Phytotoxicity, corn
condition label: 2500 ppm, 10 days
This section presents compounds with their documented Phytotoxicity Rating, Corn values.
parameter measured: Phytotoxicity Rating, Corn

compound: COC(=O)CCC(=O)OC1=C(c2c(C)cc(C)cc2C)C(=O)c2ccccc21
parameter measured: Phytotoxicity Rating, Corn
recorded value: 1
//
compound: CCCCCCCCSC(=O)OC1=C(c2c(C)cc(C)cc2C)C(=O)c2ccccc21
parameter measured: Phytotoxicity Rating, Corn
recorded value: 1
//
compound: Cc1cc(C)c(C2=C(OC(=O)CC3C=CCC3)c3ccccc3C2=O)c(C)c1 (centres unmarked)
parameter measured: Phytotoxicity Rating, Corn
recorded value: 1
//
compound: CC=CCCCCCCCC(=O)OC1=C(c2c(C)cc(C)cc2C)C(=O)c2ccccc21
parameter measured: Phytotoxicity Rating, Corn
recorded value: 2
//
compound: Cc1cc(C)c(C2=C(OC(=O)C3CCCCC3)c3ccccc3C2=O)c(C)c1
parameter measured: Phytotoxicity Rating, Corn
recorded value: 1
//
compound: CCC(=O)OC1=C(c2c(C)cc(C)cc2C)C(=O)c2ccccc21
parameter measured: Phytotoxicity Rating, Corn
recorded value: 2
//
compound: CCCCCCCCCCCCCCCCCC(=O)OC1=C(c2c(C)cc(C)cc2C)C(=O)c2ccccc21
parameter measured: Phytotoxicity Rating, Corn
recorded value: 1
//
compound: Cc1cc(C)c(C2=C(OC(=O)C(C)(C)C)c3ccccc3C2=O)c(C)c1
parameter measured: Phytotoxicity Rating, Corn
recorded value: 3
